Molecular target: Replicase polyprotein 1ab (Severe acute respiratory syndrome coronavirus 2, UniProt P0DTD1)
Please respond with reported Ki for every item in the list.
Write the number in nM without appending the unit.

response.value for `CN1C(=O)[C@H](Cc2ccccc2)N(C(=O)CNC(=O)c2cccs2)CCCOc2c(Cl)cccc2CN1C#N` (field: Ki) = 2.29

response.value for `CN(C(=O)[C@H](Cc1cccs1)NC(=O)[C@@H](NC(=O)c1cccs1)C(C)(C)C)N(C#N)Cc1cccc(Cl)c1F` (field: Ki) = 6.45

response.value for `CN1C(=O)[C@H](Cc2ccccc2)N(C(=O)CNC(=O)c2cccs2)CC2(CC2)COc2c(Cl)cccc2CN1C#N` (field: Ki) = 21.1
